# test system: PSMA (Homo sapiens, UniProt Q04609)
# Sequence (Q04609 whole entry, species assumed): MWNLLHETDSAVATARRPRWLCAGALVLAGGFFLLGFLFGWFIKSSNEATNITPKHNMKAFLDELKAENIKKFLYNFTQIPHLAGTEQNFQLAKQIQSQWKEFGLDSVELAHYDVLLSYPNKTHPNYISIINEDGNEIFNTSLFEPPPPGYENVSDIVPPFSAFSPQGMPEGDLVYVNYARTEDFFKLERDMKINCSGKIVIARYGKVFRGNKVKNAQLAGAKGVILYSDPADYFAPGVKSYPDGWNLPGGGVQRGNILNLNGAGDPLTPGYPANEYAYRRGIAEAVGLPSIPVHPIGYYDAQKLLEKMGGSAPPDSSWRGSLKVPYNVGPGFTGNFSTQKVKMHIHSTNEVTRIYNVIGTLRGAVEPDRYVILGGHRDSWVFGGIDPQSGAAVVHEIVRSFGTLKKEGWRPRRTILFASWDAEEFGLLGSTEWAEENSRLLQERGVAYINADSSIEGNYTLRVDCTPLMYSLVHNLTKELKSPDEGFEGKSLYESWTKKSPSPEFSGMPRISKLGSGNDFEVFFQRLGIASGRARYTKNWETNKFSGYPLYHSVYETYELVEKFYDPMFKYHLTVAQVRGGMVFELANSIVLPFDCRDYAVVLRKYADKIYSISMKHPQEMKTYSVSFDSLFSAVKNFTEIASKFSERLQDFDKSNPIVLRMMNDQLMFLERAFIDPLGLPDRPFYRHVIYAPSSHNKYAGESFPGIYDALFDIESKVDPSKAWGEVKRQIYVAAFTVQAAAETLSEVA
# assay procedure: PSMA competitive binding, PC-3 PIP cells with [125I]MIP-1095
# Set-up: expressed in transfected cells; host or cells: PC-3 PIP cells
# condition label: n = 3 (a: n = 2); read-out: IC50 *(PC-3 PIP cells and [125I]MIP-1095)
pIC50: −log10 of the molar value.
// pIC50 lookup, one value per entry
measurement name: pIC50

compound: O=C(O)CC[C@H](NC(=O)N[C@@H](CCCCNC(=O)[C@H](Cc1ccccc1)NC(=O)COc1ccc(C[C@H](NC(=O)[C@H](CCC(=O)O)NC(=O)c2ccc(I)cc2)C(=O)O)cc1)C(=O)O)C(=O)O
test system: PSMA (Homo sapiens, UniProt Q04609)
measurement name: pIC50
test value: 8.32

compound: O=C(O)CC[C@H](NC(=O)N[C@@H](CCCCNC(=O)[C@H](Cc1ccccc1)NC(=O)COc1ccc(C(=O)NCCCC[C@H](NC(=O)CNC(=O)CCC(C(=O)O)N2CCN(CC(=O)O)CCN(CC(=O)O)CCN(CC(=O)O)CC2)C(=O)O)cc1)C(=O)O)C(=O)O (stereo partly drawn)
test system: PSMA (Homo sapiens, UniProt Q04609)
measurement name: pIC50
test value: 7.55

compound: O=C(O)CC[C@H](NC(=O)N[C@@H](CCCCNC(=O)[C@H](Cc1ccc2ccccc2c1)NC(=O)[C@H]1CC[C@H](CNC(=O)CN2CCN(CC(=O)O)CCN(CC(=O)O)CCN(CC(=O)O)CC2)CC1)C(=O)O)C(=O)O [PSMA-617, reference compound]
test system: PSMA (Homo sapiens, UniProt Q04609)
measurement name: pIC50
test value: 7.96

compound: O=C([O-])CN1CCN(C(CCC(=O)NCC(=O)N[C@@H](Cc2ccc(OCC(=O)N[C@@H](Cc3ccccc3)C(=O)NCCCC[C@H](NC(=O)N[C@@H](CCC(=O)O)C(=O)O)C(=O)O)cc2)C(=O)O)C(=O)[O-])CCN(CC(=O)[O-])CCN(C(CCC(=O)O)C(=O)O)CC1.[Ga+3] (stereo partly drawn) [[^natGa]4]
test system: PSMA (Homo sapiens, UniProt Q04609)
measurement name: pIC50
test value: 7.65

compound: O=C(O)CC[C@H](NC(=O)N[C@@H](CCCCNC(=O)[C@H](Cc1ccccc1)NC(=O)[C@H](CCC(=O)O)NC(=O)[C@H](CCC(=O)O)NC(=O)c1ccc(I)cc1)C(=O)O)C(=O)O
test system: PSMA (Homo sapiens, UniProt Q04609)
measurement name: pIC50
test value: 8.70

compound: O=C(O)CC[C@H](NC(=O)N[C@@H](CCCCNC(=O)[C@H](Cc1ccccc1)NC(=O)COc1ccc(C[C@H](NC(=O)CNC(=O)CCC(C(=O)O)N2CCN(CC(=O)O)CCN(C(CCC(=O)NCCOCCOCCNC(=O)CCCc3ccc(I)cc3)C(=O)O)CCN(CC(=O)O)CC2)C(=O)O)cc1)C(=O)O)C(=O)O (stereo partly drawn)
test system: PSMA (Homo sapiens, UniProt Q04609)
measurement name: pIC50
test value: 7.87
